recorded_endpoint: melting point (°C)

Some compounds with recorded melting point:
compound | melting point [°C]
CCO [ethanol] | -114
CC(=O)Oc1ccccc1C=O [o-acetoxybenzaldehyde] | 38
CCCCCCCCCN [1-nonylamine] | -1
CC(C)NCC(O)c1cc(O)cc(O)c1 (stereo unspecified) [metaproterenol] | 100
Cc1ccc(/N=N/c2ccc(N(C)C)cc2)cc1 [4-dimethylamino-4'-methylazobenzene] | 166
OCc1ccccc1OC1OC(CO)C(O)C(O)C1O (stereo unspecified) [2-(Hydroxymethyl)phenyl hexopyranoside] | 199
CC(C)(C)CCl [neopentyl chloride] | -20
C/C=C/C(C)C [4-methyl-trans-2-pentene] | -141
C#CCON1C(=O)c2ccccc2C1=O [N-propargyloxyphthalimide] | 151
O=Cc1ccc(F)c(Cl)c1 [3-chloro-4-fluorobenzaldehyde] | 27

I = COc1ccc(C(=O)c2ccccc2Cl)cc1OC [methanone, (2-chlorophenyl)(3,4-dimethoxyphenyl)-]
II = C/C=C\C(C)C [4-methyl-cis-2-pentene]
Could you tell me which of I and II has the lower melting point reading? // return label of chosen record II

----------
Where a name gives a salt, the structure may show the parent alone.
recorded_endpoint: melting point (°C)

compound | recorded_endpoint | recorded_number
CCCCCCCCc1ccccc1 | melting point | -36
O=[N+]([O-])c1ccc(Nc2ccccc2)c([N+](=O)[O-])c1 | melting point | 160
CCOS(=O)(=O)OCC [Diethyl sulfate] | melting point | -24
CC(=O)c1cccc(O)c1 [3-hydroxyacetophenone] | melting point | 89
O=C1NC(=O)c2ccccc21 [phthalimide] | melting point | 234

1 = CC(C)OC(=O)/N=N/C(=O)OC(C)C [diisopropyl azodicarboxylate]
2 = N#CCc1cccc(O)c1 [m-hydroxy_phenylacetonitrile]
3 = CCCCCC(C)(C)O
4 = Cc1cc(NS(=O)(=O)c2ccc(N)cc2)nc(C)n1
Rank items: key melting point, increasing. Reply with the labels, ordered as the question asks. 3, 1, 2, 4

----------
recorded_endpoint: melting point (°C)

compound | quantity_unit | recorded_number
[2H]C([2H])([2H])S(=O)C([2H])([2H])[2H] [Bis[(~2~H_3_)methyl] sulfoxide] | °C | 18.4
C#CCCCC | °C | -132

1 = Oc1ccccc1O [Pyrocatechol]
2 = COc1ccc(B(O)O)c(Cl)c1
Param pair: 1 , 2 . Output: the one whose melting point is numerically greater. // return label of chosen record 2
(2: 202 °C, 1: 105 °C)

P = Cc1ccc(S(=O)(=O)N=S(C)(C)=O)cc1
Q = COc1cc(N)ccc1C
Could you tell me which of P and Q has the lower melting point reading? // return label of chosen record Q
(Q: 58 °C, P: 168 °C)

I = Cc1ccc(C(=O)/C=C/c2ccc(-c3ccccc3)o2)o1
II = ClC1CCCC1
Could you tell me which of I and II has the lower melting point reading? // return label of chosen record II
(II: -94 °C, I: 123 °C)

A = O=Cc1ccccc1B(O)O
B = CC(=O)c1ccccc1[N+](=O)[O-] [1-(2-Nitrophenyl)ethanone]
Param pair: A , B . Output: the one whose melting point is numerically greater. // return label of chosen record A

P = COc1ccccc1OCC(O)CO (stereo unspecified)
Q = O=C(O)C(F)(F)F
Could you tell me which of P and Q has the lower melting point reading? // return label of chosen record Q

a = O=C(c1ccccc1)c1ccc(Br)cc1
b = CCCCCCCCCCCCCc1ccccc1
Could you tell me which of a and b has the lower melting point reading? // return label of chosen record b
(b: 10 °C, a: 82 °C)

P = CCCCCCCCCCCCCC(=O)CCCCCCCCCCCCC
Q = O=C(O)CCCCCCCCC(=O)O
Could you tell me which of P and Q has the lower melting point reading? // return label of chosen record P
(P: 78 °C, Q: 133 °C)

1 = CC(=O)c1ccc(O)c(C(N)=O)c1 [5-acetylsalicylamide]
2 = N#Cc1cc([N+](=O)[O-])ccc1F
Could you tell me which of 1 and 2 has the lower melting point reading? // return label of chosen record 2
